Where these numbers come from: the FLAb antibody collection (doi:10.7554/elife.23156)

B1: scFv; the commonest letter at each place (parent)
chain 1: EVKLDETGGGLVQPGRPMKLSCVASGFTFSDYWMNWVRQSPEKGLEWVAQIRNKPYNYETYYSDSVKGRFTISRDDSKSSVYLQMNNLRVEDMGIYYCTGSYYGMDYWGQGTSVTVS
chain 2: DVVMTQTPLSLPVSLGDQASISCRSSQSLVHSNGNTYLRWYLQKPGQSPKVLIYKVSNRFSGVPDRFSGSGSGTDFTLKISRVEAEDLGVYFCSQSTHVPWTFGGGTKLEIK

variants of: B1; assay: yeast surface expression (ratio to wild type); higher = more expressed; conditions: format: scFv 4-4-20, heavy + light
Would you please tag the item T when its yeast surface expression is 0.7 or above, and F when it is below?

• chain 1 D106M = F
• chain 1 G104N = T
• chain 1 Y102K Y103A D106W = F
• chain 1 G104Y Y107H = F
• chain 1 T28S M34N = F
• chain 1 G104D = T
• chain 1 S101Q G104R = F
• chain 1 S30M N35M = F
• chain 1 W33I = T
• chain 1 S101W G104Y = F
• chain 1 W33E W36L = F
• chain 1 Y107V W108D = F
• chain 1 G100V S101I = F
• chain 1 F29A S30V = T
• chain 1 G104H Y107R = F
• chain 1 G104D M105L = T
• chain 1 D31F W33I = F
• chain 1 Y32W W33F = T
• chain 1 Y102L G109K = F
• chain 1 F29M = T
